Each entry below carries its measured pIC50, system: CYP3A4 (Homo sapiens).
Sequence (P08684 2-503 limits assumed): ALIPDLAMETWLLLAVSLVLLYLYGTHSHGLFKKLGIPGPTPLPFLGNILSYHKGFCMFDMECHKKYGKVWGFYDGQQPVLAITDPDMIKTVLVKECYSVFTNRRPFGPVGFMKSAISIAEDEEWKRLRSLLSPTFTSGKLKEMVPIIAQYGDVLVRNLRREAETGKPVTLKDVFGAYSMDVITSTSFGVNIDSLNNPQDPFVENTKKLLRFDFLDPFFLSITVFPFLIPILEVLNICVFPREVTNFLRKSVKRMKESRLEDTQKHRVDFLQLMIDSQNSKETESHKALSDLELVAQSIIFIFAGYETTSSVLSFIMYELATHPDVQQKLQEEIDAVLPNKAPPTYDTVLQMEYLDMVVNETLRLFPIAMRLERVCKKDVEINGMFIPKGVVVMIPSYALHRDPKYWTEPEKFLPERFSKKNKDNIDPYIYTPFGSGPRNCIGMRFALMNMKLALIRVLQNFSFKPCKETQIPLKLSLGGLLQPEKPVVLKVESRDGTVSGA
pIC50: −log10 of the molar value.
property.name: pIC50

{"columns": ["compound", "pIC50"],
 "data": [
  ["COc1ccc2oc(-c3cc(OC)c(OC)cc3OC)c(O)c(=O)c2c1 [3H6-TMF, 3-hydroxy-2′,4′,5′,6-tetramethoxyflavone]", 6.36],
  ["COc1ccc2c(=O)c(O)c(-c3cc(OC)c(OC)cc3OC)oc2c1 [3H7-TMF, 3-hydroxy-2′,4′,5′,7-tetramethoxyflavone]", 6.82]
]}

[1] COc1ccc(-c2cc(=O)c3ccc(OC)c(OC)c3o2)cc1OC
[2] COc1cc(OC)c2c(=O)cc(-c3ccc(OC)c(OC)c3)oc2c1
In: Would you kindly point out which of 1 and 2 has the smaller pIC50 figure? The response must carry the label of the picked entry.
Out: 1
(1: 3.97, 2: 5.45)

----------
Transport Efficiency (%) by entry:
- Test system: Caco-2 cell monolayer
- assay.comment: Transport of TMFs across Caco-2 cell monolayer, apical to basolateral
- Format: in vitro ADME, human
- condition: 2 h, 300 μg/mL TMF loaded on apical side, mean ± S.D
Marks after values point to notes of the source that are not given here.

Consider the worked cases shown below.
{"columns": ["compound", "test.target", "property.name", "experimental.result"],
 "data": [
  ["COc1ccc(-c2cc(=O)c3ccc(OC)c(OC)c3o2)cc1OC", "Caco-2 cell monolayer", "Transport Efficiency (%)", "33.98 ± 0.75 ^b %"],
  ["COc1cc(OC)c2c(=O)cc(-c3ccc(OC)c(OC)c3)oc2c1", "Caco-2 cell monolayer", "Transport Efficiency (%)", "33.03 ± 0.46 ^b %"],
  ["COc1ccc2c(=O)c(O)c(-c3cc(OC)c(OC)cc3OC)oc2c1 [3H7-TMF, 3-hydroxy-2′,4′,5′,7-tetramethoxyflavone]", "Caco-2 cell monolayer", "Transport Efficiency (%)", "41.96 ± 1.14 ^b %"]
]}

In: Give reported Transport Efficiency (%) value for COc1ccc2oc(-c3cc(OC)c(OC)cc3OC)c(O)c(=O)c2c1 [3H6-TMF, 3-hydroxy-2′,4′,5′,6-tetramethoxyflavone]
Out: 33.27 ± 2.59 ^b %

----------
- Tested on: CYP1A2, CYP2C9, CYP2C19 (range over the three)
- assay.comment: CYP inhibition assay, summary over the enzyme panel
- Format: biochemical
- condition: human, probe Vivid substrates; range over CYP1A2, 2C9 and 2C19; dose-dependent
property.name: IC50 at 25 min

In: Give reported IC50 at 25 min value for COc1ccc(-c2cc(=O)c3ccc(OC)c(OC)c3o2)cc1OC [78-TMF, 3′,4′,7,8-tetramethoxyflavone]
Out: 790 to 1850 nM
